Assay: inhibition of M3R-evoked calcium signal on retest – cell-based, HEK293 M3R/RGS4 inducible, calcium flux, duplicate, RGS4 activator project, confirmation (AID 602282);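 further: signal is the integrated peak-minus-minimum Fluo4 fluorescence over baseline ratio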
Conditions: carbachol calcium flux Fluo4, at 10 µM
In all, about 1,100 compounds went through this assay and about 1,000 (91%) were called active.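 How the source made its calls: active means inhibition above 3 SD of the buffer control wells (cut at about 41% in these data); inactive means the rest.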 So high a share suggests a set chosen from earlier hits. A selection follows.
Classes to choose from: Y for active, N for inactive

Sample answers from the record:
compound	label
Cc1ccc(OCCCCN2CCCCC2)c(Br)c1	N
COc1ccc(C(=O)NC2CCCc3c2cnn3-c2cccc(C)c2C)c(OC)n1 (stereo unspecified)	Y
CCOC(=O)C1=C(NC(=S)NC(=O)c2ccccc2)c2ccccc2CC1(C)C	Y

Tell me the recorded outcome of this test for CCC1C=C(c2ccccc2)C=CN=C1N(CC)CC (stereo unspecified) .
Y

Tell me the recorded outcome of this test for COc1ccc(-c2cc(C(=O)N(C)Cc3ccccc3)c3ccccc3n2)cc1 .
Y

Tell me the recorded outcome of this test for CCOc1ccc(C(CC(=O)O)NC(=O)COc2ccccc2)cc1 (stereo unspecified) .
N

Tell me the recorded outcome of this test for COc1cccc(/C=N/Nc2cc(C)nc(-c3ccccc3O)n2)c1O .
Y

Tell me the recorded outcome of this test for Cc1cccc(-c2nc(Nc3ccc(O)cc3)c3ccccc3n2)c1 .
Y

Tell me the recorded outcome of this test for CCc1c(C)sc(NC(=O)c2ccc(Br)o2)c1C(=O)OC .
Y

Tell me the recorded outcome of this test for COc1ccc(CN(C)C(=O)c2cc(-c3ccc(C)cc3C)nc3ccccc23)c(OC)c1OC .
Y

Tell me the recorded outcome of this test for COc1cccc(-c2cc3nc4c(c(N5CCC6(CC5)OCCO6)n3n2)CCCC4)c1 .
Y
